Biological target: Bifunctional dihydrofolate reductase-thymidylate synthase (Trypanosoma cruzi, UniProt Q27793)
Sequence (Q27793 whole entry): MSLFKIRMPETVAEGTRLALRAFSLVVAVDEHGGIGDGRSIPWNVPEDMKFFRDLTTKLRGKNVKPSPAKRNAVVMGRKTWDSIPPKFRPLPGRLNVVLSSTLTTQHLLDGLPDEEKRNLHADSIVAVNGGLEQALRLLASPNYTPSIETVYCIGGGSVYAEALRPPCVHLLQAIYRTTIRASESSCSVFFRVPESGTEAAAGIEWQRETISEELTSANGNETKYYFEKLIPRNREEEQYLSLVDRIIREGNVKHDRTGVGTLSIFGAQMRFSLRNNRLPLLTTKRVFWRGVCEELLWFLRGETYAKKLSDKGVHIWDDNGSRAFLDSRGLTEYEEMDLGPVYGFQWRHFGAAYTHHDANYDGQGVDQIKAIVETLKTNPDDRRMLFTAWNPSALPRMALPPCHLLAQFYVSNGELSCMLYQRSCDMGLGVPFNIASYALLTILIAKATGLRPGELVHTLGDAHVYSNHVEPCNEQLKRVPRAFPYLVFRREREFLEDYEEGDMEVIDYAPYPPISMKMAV
Test: Inhibition of Trypanosoma cruzi DHFR by spectrophotometric assay

{"MOLECULE": "COc1ccc(NCc2ccc3nc(N)nc(N)c3c2)cc1OC", "IC50 (nM)": 27.1}
{"MOLECULE": "COC(=O)c1ccc(COc2cc(NCc3ccc4nc(N)nc(N)c4c3)ccc2OC)cc1", "IC50 (nM)": 57.5}
{"MOLECULE": "CCCN(Cc1ccc2nc(N)nc(N)c2c1)c1ccc(OC)c(OCCCCC(=O)OC)c1", "IC50 (nM)": 422}
{"MOLECULE": "CCOC(=O)CCCOc1cc(NCc2ccc3nc(N)nc(N)c3c2)ccc1OC", "IC50 (nM)": 23.8}
{"MOLECULE": "COC(=O)CCCCOc1cc(NCc2ccc3nc(N)nc(N)c3c2)ccc1OC", "IC50 (nM)": 27}
{"MOLECULE": "COc1ccc(NCc2ccc3nc(N)nc(N)c3c2)cc1OCCCC(=O)O", "IC50 (nM)": 61}
{"MOLECULE": "COc1cc(NCc2ccc3nc(N)nc(N)c3c2C)cc(OC)c1OC [TRIMETREXATE]", "IC50 (nM)": 20.2}

###

Entries annotated with measured pKi
Molecular target: Bifunctional dihydrofolate reductase-thymidylate synthase (Trypanosoma cruzi)
Assay: Inhibition of Trypanosoma cruzi DHFR by spectrophotometric assay
pKi: −log10 of the molar value.

{"COMPOUND": "COc1ccc(NCc2ccc3nc(N)nc(N)c3c2)cc1OCCCC(=O)O", "pKi": 8.44}
{"COMPOUND": "CCOC(=O)CCCOc1cc(NCc2ccc3nc(N)nc(N)c3c2)ccc1OC", "pKi": 8.89}
{"COMPOUND": "COc1cc(NCc2ccc3nc(N)nc(N)c3c2C)cc(OC)c1OC [TRIMETREXATE]", "pKi": 8.18}
{"COMPOUND": "CCCN(Cc1ccc2nc(N)nc(N)c2c1)c1ccc(OC)c(OCCCCC(=O)OC)c1", "pKi": 7.60}
{"COMPOUND": "COC(=O)CCCCOc1cc(NCc2ccc3nc(N)nc(N)c3c2)ccc1OC", "pKi": 8.80}
{"COMPOUND": "COc1ccc(NCc2ccc3nc(N)nc(N)c3c2)cc1OC", "pKi": 8.80}
{"COMPOUND": "COC(=O)c1ccc(COc2cc(NCc3ccc4nc(N)nc(N)c4c3)ccc2OC)cc1", "pKi": 8.48}

###

Parameter IC50, tested on UniProtKB P00374, listed per item.
Sequence (P00374 whole entry): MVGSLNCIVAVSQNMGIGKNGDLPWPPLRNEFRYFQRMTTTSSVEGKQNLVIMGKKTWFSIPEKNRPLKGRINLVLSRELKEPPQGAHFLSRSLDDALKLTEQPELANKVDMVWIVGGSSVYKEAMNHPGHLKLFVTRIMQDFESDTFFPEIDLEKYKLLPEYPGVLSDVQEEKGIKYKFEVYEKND
REPORTED METRIC: IC50

{"COMPOUND STRING": "COC(=O)c1ccc(COc2cc(NCc3ccc4nc(N)nc(N)c4c3)ccc2OC)cc1", "TESTED TARGET": "UniProtKB P00374", "REPORTED METRIC": "IC50", "OBSERVED": "175 nM"}
{"COMPOUND STRING": "COC(=O)CCCCOc1cc(NCc2ccc3nc(N)nc(N)c3c2)ccc1OC", "TESTED TARGET": "UniProtKB P00374", "REPORTED METRIC": "IC50", "OBSERVED": "93.5 nM"}
{"COMPOUND STRING": "COc1ccc(NCc2ccc3nc(N)nc(N)c3c2)cc1OCCCC(=O)O", "TESTED TARGET": "UniProtKB P00374", "REPORTED METRIC": "IC50", "OBSERVED": "357 nM"}
{"COMPOUND STRING": "CCCN(Cc1ccc2nc(N)nc(N)c2c1)c1ccc(OC)c(OCCCCC(=O)OC)c1", "TESTED TARGET": "UniProtKB P00374", "REPORTED METRIC": "IC50", "OBSERVED": "1340 nM"}
